tested on: PCa S/P cells (LNCaP CD133+); experiment: MTT growth assay of prostate cancer S/P cells treated with inhibitors; assay type: cell-based, human; conditions: Homo sapiens, LNCaP; compound used alone, S/P cells, MTT; read-out: IC50 of the individual compound
pIC50: −log10 of the molar value.
measurementName: pIC50

Task: Report measured pIC50; entry is O=c1cc(N2CCOCC2)oc2c(-c3ccccc3)cccc12
Output: 5.30 to 5.60
